Overview of recorded IC50 for various molecules
- System: CAPAN-1
- MEASUREMENT_NOTES: Antiproliferative activity against BRCA2-deficient human Capan1 cells after 48 hrs by MTT assay
- Format: functional, cell-based
- RECORDED_CONDITIONS: CAPAN-1, 48 h
ASSAY_ENDPOINT: IC50 (µM)

- O=C1/C(=C/c2ccncc2)CN(C(=O)c2cc(Cc3n[nH]c(=O)c4ccccc34)ccc2F)C/C1=C\c1ccncc1: 0.202
- O=C1/C(=C/c2cccc(F)c2)CN(C(=O)c2cc(Cc3n[nH]c(=O)c4ccccc34)ccc2F)C/C1=C\c1cccc(F)c1: 1.68
- O=C(c1cc(Cc2n[nH]c(=O)c3ccccc23)ccc1F)N1CCN(C(=O)C2CC2)CC1: 83.1
- O=C1/C(=C/c2ccc(Cl)cc2)CN(C(=O)c2cc(Cc3n[nH]c(=O)c4ccccc34)ccc2F)C/C1=C\c1ccc(Cl)cc1: 1.78
- O=C1/C(=C/c2cccnc2)CN(C(=O)c2cc(Cc3n[nH]c(=O)c4ccccc34)ccc2F)C/C1=C\c1cccnc1: 82.8
- O=C1/C(=C/c2ccccc2F)CN(C(=O)c2cc(Cc3n[nH]c(=O)c4ccccc34)ccc2F)C/C1=C\c1ccccc1F: 2.02
- COc1cc(/C=C2\CN(C(=O)c3cc(Cc4n[nH]c(=O)c5ccccc45)ccc3F)C/C(=C\c3cc(OC)c(OC)c(OC)c3)C2=O)cc(OC)c1OC: 118
- O=C1/C(=C/c2ccc3c(c2)OCO3)CN(C(=O)c2cc(Cc3n[nH]c(=O)c4ccccc34)ccc2F)C/C1=C\c1ccc2c(c1)OCO2: 32
- O=C1/C(=C/c2ccccn2)CN(C(=O)c2cc(Cc3n[nH]c(=O)c4ccccc34)ccc2F)C/C1=C\c1ccccn1: 37.3

* * *

- System: CAPAN-1
- MEASUREMENT_NOTES: Antiproliferative activity against BRCA2-deficient human Capan1 cells after 48 hrs by MTT assay
- Format: functional, cell-based
- RECORDED_CONDITIONS: CAPAN-1, 48 h
pIC50: −log10 of the molar value.
ASSAY_ENDPOINT: pIC50

- O=C1CCN(C(=O)c2cc(Cc3n[nH]c(=O)c4ccccc34)ccc2F)CC1: < 3.70
- O=C1/C(=C/c2ccccc2O)CN(C(=O)c2cc(Cc3n[nH]c(=O)c4ccccc34)ccc2F)C/C1=C\c1ccccc1O: < 3.70
- O=C1/C(=C/c2ccc(F)cc2)CN(C(=O)c2cc(Cc3n[nH]c(=O)c4ccccc34)ccc2F)C/C1=C\c1ccc(F)cc1: < 3.70
